# TESTED ON: Tyrosine-protein kinase JAK3 (Homo sapiens)
# Sequence (P52333 whole entry): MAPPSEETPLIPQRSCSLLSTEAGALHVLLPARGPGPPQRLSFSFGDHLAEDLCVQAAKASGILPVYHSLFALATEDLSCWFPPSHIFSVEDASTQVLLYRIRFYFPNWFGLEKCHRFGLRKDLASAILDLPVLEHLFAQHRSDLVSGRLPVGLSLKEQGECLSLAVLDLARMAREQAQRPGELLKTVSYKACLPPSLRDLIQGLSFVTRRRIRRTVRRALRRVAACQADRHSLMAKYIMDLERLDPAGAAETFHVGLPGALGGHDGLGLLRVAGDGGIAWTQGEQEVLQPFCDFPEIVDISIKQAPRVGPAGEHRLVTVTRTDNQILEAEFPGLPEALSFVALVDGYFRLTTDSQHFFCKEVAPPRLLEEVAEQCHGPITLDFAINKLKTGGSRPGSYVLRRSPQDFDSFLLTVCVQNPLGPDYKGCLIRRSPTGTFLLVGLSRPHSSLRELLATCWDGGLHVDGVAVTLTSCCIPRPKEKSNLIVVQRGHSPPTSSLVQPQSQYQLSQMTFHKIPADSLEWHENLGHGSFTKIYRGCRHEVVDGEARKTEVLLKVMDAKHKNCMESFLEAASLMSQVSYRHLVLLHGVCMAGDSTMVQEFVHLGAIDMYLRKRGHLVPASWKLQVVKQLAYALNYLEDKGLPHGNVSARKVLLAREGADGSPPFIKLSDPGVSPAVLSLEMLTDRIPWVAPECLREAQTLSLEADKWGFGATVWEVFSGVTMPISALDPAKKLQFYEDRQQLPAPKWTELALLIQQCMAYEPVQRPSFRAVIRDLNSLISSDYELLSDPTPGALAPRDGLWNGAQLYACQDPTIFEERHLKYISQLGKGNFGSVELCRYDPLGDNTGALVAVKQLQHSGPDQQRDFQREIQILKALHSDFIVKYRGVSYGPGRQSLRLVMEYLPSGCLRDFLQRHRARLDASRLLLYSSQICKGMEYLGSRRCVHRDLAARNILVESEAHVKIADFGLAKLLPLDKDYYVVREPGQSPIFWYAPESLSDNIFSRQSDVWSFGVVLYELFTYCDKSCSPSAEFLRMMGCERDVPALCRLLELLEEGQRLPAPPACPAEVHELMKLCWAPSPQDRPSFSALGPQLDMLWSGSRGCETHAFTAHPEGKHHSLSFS
# PROTOCOL DESCRIPTION: JAK Caliper Enzyme Assay at 1 mM ATP: Test article was solubilized in dimethyl sulfoxide (DMSO) to a stock concentration of 30 mM. An 11-point half log dilution series was created in DMSO with a top concentration of 600 μM. […] The compound plates were diluted 1 to 60 resulting in a top final assay compound concentration of 10 μM and a 2% DMSO concentration.Test article and assay controls were added to a 384-well plate. Reaction mixtures contained 20 mM HEPES, pH 7.4, 10 mM magnesium chloride, 0.01% bovine serum albumin (BSA), 0.0005% Tween 20, 1 mM ATP and 1 μM peptide substrate. The JAK1 and TYK2 assays contained 1 μM of the IRStide peptide (5FAM-[…]) and the JAK2 and JAK3 assays contained 1 μM of the JAKtide peptide (FITC-[…]). […] Enzyme concentrations and incubation times were optimized for each new enzyme preps and were modified slightly over time to ensure 20%-30% phosphorylation. The assays were stopped with a final concentration of 10 mM EDTA, 0.1% Coating Reagent and 100 mM HEPES, pH=7.4. The assay plates were placed on a Caliper Life Science Lab Chip 3000 (LC3000) instrument, and each well was sampled using appropriate separation conditions to measure the unphosphorylated and phosphorylated peptide.

STRUCTURE SMILES	IC50 / nM
CSCCNc1nc(-c2cc(F)c(O)cc2CC(F)(F)F)cc2[nH]nc(-c3nc4c([nH]3)CCN(Cc3ccccc3)C4)c12	589
CCc1cc(O)ccc1-c1cc2[nH]ncc2c(N2CCc3cc(-n4cnc(C)c4)ccc3C2)n1	42.4
CCc1cc(O)ccc1-c1cc2[nH]ncc2c(N2CCc3cccc(OC)c3C2)n1	78.1

Source listed as ChEMBL document CHEMBL5725720.
